System: cyBCMA
Protocol summary: Kinetics and affinity of cyBCMA/human IgG interactions by SPR (Bio-Rad Proteon XPR36)
Format: binding, cynomolgus
Condition parameters: 37° C.
Provide the recorded kd (1/s) cyBCMA @37° C. for the entries that follow.
One number for each entry, in s⁻¹.

Molecule	kd (1/s) cyBCMA @37° C. [s⁻¹]
L3.PY/L1.PS/H3.AE: anti-BCMA antibody (antibody, V domains shown) VH: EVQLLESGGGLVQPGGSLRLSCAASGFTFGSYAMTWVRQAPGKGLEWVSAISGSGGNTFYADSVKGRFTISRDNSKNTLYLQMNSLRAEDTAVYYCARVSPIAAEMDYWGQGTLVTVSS VL: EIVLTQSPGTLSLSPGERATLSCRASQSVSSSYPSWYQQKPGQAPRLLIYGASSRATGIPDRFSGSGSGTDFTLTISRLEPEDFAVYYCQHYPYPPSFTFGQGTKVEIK	0.00413

Need kd (1/s) cyBCMA @37° C. of L3.PY/L1.FF/H3.AE: anti-BCMA antibody (antibody, V domains shown) VH: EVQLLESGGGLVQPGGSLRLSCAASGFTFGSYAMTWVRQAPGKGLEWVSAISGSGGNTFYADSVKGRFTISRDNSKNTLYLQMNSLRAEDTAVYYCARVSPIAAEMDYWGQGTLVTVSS VL: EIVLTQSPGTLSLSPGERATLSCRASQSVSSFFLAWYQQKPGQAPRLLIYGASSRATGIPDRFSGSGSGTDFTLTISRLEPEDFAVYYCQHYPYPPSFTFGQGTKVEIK , thanks.
0.00501
